Documented Blackgrass plant response rating across a set of compounds
Tested on: blackgrass
Procedure Details: Test B pre/postemergence blackgrass
Format: in vivo, Alopecurus myosuroides
Settings: Postemergence, Rate 62 g/ha; scale 0 to 10, 0 is no effect, 10 is complete control
Method: […] At the same time, these crop and weed species were also treated with postemergence applications of test chemicals formulated in the same manner. […] Treated plants and controls were maintained in a greenhouse for twelve to sixteen days, after which all species were compared to controls and visually evaluated. […]
Answer as a number with no unit attached.

{"Smiles Text": "CCCn1c(=O)on(C(=O)N(c2ccccc2)C(C)C)c1=O", "Endpoint": "Blackgrass plant response rating", "Test Result": 7}
{"Smiles Text": "CC(C)N(C(=O)n1oc(=O)n(-c2ccccc2)c1=O)c1ccc(F)cc1", "Endpoint": "Blackgrass plant response rating", "Test Result": 0}
{"Smiles Text": "CC(C)N(C(=O)n1oc(=O)n(Cc2ccccc2)c1=O)c1ccc(F)cc1", "Endpoint": "Blackgrass plant response rating", "Test Result": 0}

Next compound, please.
Recorded Blackgrass plant response rating for CCN(Cc1ccccc1)C(=O)n1oc(=O)n(-c2c(C)cccc2C)c1=O , please?
0

This collection of values is drawn from patent US6737383B1.
